ASSAYED_SYSTEM: T1, human C-reactive protein (human, UniProt P02741 19-224)
T1 construct: Biotinylated or labelled with Alexa Fluor 488; also called CRP; C-RP
T1 sequence (looked up): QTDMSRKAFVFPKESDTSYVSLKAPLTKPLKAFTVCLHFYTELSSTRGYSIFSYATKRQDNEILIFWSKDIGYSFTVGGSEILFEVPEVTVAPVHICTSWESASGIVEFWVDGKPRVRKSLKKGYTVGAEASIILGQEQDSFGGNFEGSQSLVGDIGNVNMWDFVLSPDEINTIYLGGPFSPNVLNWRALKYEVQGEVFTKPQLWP
PROTOCOL_DESCRIPTION: equilibrium dissociation constant of a selected displayed peptide, whole-cell flow cytometry at various CRP concentrations
No end group written: not given here.
MEASURED_PROPERTY: Kd

{"columns": ["BINDER", "TEST_VALUE"],
 "data": [
  ["EWACNDRGFNCQLQR (not fully specified (bridges); cysteine pairing not given here, Insert only; said to be a cyclic peptide (two cysteines)) [CRP-1]", "1.2 nM"]
]}
